Kind request: treat 80 °C as inclusive, so melting point at 80 °C or higher is TRUE, anything lower is FALSE.

# compound, group.label
records = [
    ("CCCCCCCCCCCCCCCCCCCl", "FALSE"),
    ("CCC(=O)Oc1ccccc1", "FALSE"),
    ("CCCS(=O)(=O)CCC", "FALSE"),
    ("CC1(C)CCC(Cc2ccc(Cl)cc2)C1(O)Cn1cncn1 (centres undefined)", "TRUE"),
    ("COc1ccc(CCN2CCC(Nc3nc4ccccc4n3Cc3ccc(F)cc3)CC2)cc1", "TRUE"),
    ("CC(=O)S[C@@H]1CC2=CC(=O)CC[C@]2(C)[C@H]2CC[C@@]3(C)[C@@H](CC[C@@]34CCC(=O)O4)[C@H]12", "TRUE"),
    ("COc1ccc(C[C@H]2c3cc(OC)c(OC)cc3CCN2C)cc1O", "TRUE"),
    ("NCC1CCNCC1", "FALSE"),
    ("CC(=O)C=CC=Cc1ccccc1", "FALSE"),
    ("CCC(=O)CC", "FALSE"),
    ("Clc1cc2oc3cc(Cl)c(Cl)cc3c2cc1Cl", "TRUE"),
    ("Cc1ccc(S(=O)(=O)NC(=O)NN2CCCCCC2)cc1", "TRUE"),
    ("CCCCS/C(=N\\c1cccnc1)SCc1ccc(C(C)(C)C)cc1", "FALSE"),
    ("CCCCCCCCCCCCCCCCOC(=O)C(C)O (centres undefined)", "FALSE"),
    ("CCCC(C)(C)C", "FALSE"),
    ("OC(c1ccccc1)c1ccccc1", "FALSE"),
    ("OCC1(CO)CC=CCC1", "TRUE"),
    ("Brc1c(Br)c(Br)c(Br)c(Br)c1Br", "TRUE"),
    ("c1cc2ccc3ccc4ccc5cccc6c(c1)c2c3c4c56", "TRUE"),
    ("Oc1ccc2ccccc2c1Br", "TRUE"),
    ("CCCCCCCCCCCCCC(=O)OC(C)C", "FALSE"),
    ("CO[C@@H]1C=C[C@@]23c4cc5c(cc4CO[C@]2(O)CN(C)[C@H]3C1)OCO5", "TRUE"),
    ("Nc1ccc(S(=O)(=O)c2ccc(NC(=O)CCC(=O)O)cc2)cc1", "TRUE"),
    ("O=S1OCC2C(CO1)C1(Cl)C(Cl)=C(Cl)C2(Cl)C1(Cl)Cl (centres undefined)", "TRUE"),
    ("CN(C)c1ccc(C(O)c2ccc(N(C)C)cc2)cc1", "TRUE"),
    ("CC(=O)N(CC(C)C(=O)O)c1c(I)cc(I)c(N)c1I (centres undefined)", "TRUE"),
    ("O=C(O)CCc1ccccc1", "TRUE"),
    ("N#Cc1c(F)c(F)c(F)c(F)c1F", "FALSE"),
    ("O=[N+]([O-])c1ccc(SCl)c([N+](=O)[O-])c1", "TRUE"),
    ("COC(=O)C1(S(=O)(=O)c2ccc(Br)cc2)CC1", "TRUE"),
    ("O=Cc1ccccc1[N+](=O)[O-]", "FALSE"),
    ("C=CCC1(CC(C)C)C(=O)NC(=O)NC1=O", "TRUE"),
    ("O=[N+]([O-])c1ccc(N=C=S)cc1", "TRUE"),
    ("CN1CC[C@]23CCCC[C@H]2[C@H]1Cc1ccc(O)cc13", "TRUE"),
]

* * *

# compound, log10 Koa
measured = [
    ("Clc1ccc2cc(Cl)c(Cl)c(Cl)c2c1", 8.35),
    ("Brc1cccc(Oc2ccccc2)c1", 7.36),
    ("Clc1ccccc1", 3.31),
    ("Brc1ccc(Oc2ccc(Br)c(Br)c2Br)c(Br)c1", 11.7),
    ("Clc1c(Cl)c(Cl)c2c(Cl)c(Cl)c(Cl)c(Cl)c2c1Cl", 11.1),
    ("Clc1cccc(Cl)c1Cl", 5.19),
    ("ClC1=C(Cl)C2(Cl)C3C(Cl)C(Cl)C(Cl)C3C1(Cl)C2(Cl)Cl (stereo not given)", 9.43),
    ("COC(=O)c1ccc(O)cc1", 8.57),
    ("Clc1cc(Cl)c(Cl)cc1Cl", 5.63),
    ("CCC#N", 2.69),
    ("CCCCCCCCCCCCCCCCCCO", 10.9),
    ("ClCC(Cl)Cl", 3.4),
    ("Clc1cc(Cl)cc(Cl)c1", 4.85),
    ("Clc1cc2c(cc1Cl)Oc1cc(Cl)c(Cl)cc1O2", 10.1),
    ("Brc1ccc(Oc2ccc(Br)cc2Br)cc1", 9.5),
]

* * *

measurement.type: melting point (°C)

# compound, result.units, result
records = [
    ("CCCCCCCCSC(=O)Oc1cc(Cl)nnc1-c1ccccc1", "°C", 27),
    ("C=CC(=O)NCO", "°C", 74.5),
    ("O=C(Cl)N(c1ccccc1)c1ccccc1", "°C", 83),
    ("C=CC(Cl)(Cl)Cl", "°C", -30),
    ("COc1cc(NS(=O)(=O)c2ccc(N)cc2)nc(C)n1", "°C", 146),
    ("Cc1ccccc1N=Nc1c(N)ccc2ccccc12", "°C", 126),
    ("Cc1ccc(Oc2ccc([N+](=O)[O-])cc2)cc1", "°C", 69),
    ("CC(C)(C)NCC(O)COc1cccc2c1C[C@H](O)[C@H](O)C2 (stereo partly drawn)", "°C", 130),
    ("Clc1cc(Cl)nc(-c2ccccc2)n1", "°C", 96.9),
    ("N#C/C=C/c1ccccc1", "°C", 22),
    ("O=C(O)c1ccc(O)c(Cl)c1", "°C", 171),
    ("C=CCCCCCCCC", "°C", -66.3),
    ("CCCCCCCCCC(=O)CCCCCCCCC", "°C", 65.5),
]

* * *

Doc: threshold 60 °C (exclusive). Items with melting point beneath it return rule met; others return rule not met.

# smiles.string, group.label
data = [
    ("O=C(O)COc1c(Cl)ccc(Cl)c1Cl", "rule not met"),
    ("CC(C)(OC1CCCCC1)C(=O)O", "rule not met"),
    ("O=C(O)c1cccc(O)c1", "rule not met"),
    ("CCCCCCCCCCOC(=O)CCCCC(=O)OCCCCCCCC", "rule met"),
    ("BrC(Br)(Br)c1ccc2ccccc2n1", "rule not met"),
    ("O=C(O)c1ccc(F)c(F)c1F", "rule not met"),
    ("CC(=O)C(C)=O", "rule met"),
]

* * *

measurement.type: boiling point (°C)

# compound, measurement.type, result
measured = [
    ("Clc1cc(Cl)cc(Cl)c1", "boiling point", 208),
    ("CN", "boiling point", -6.3),
    ("c1ccc(CCCC2CCCC2)cc1", "boiling point", 272),
    ("FC(F)(F)CCCl", "boiling point", 45.1),
    ("CCCCCCCOCC", "boiling point", 166),
    ("N#CCCCCCN", "boiling point", 236),
    ("CCOc1ccc(OCC)cc1", "boiling point", 246),
    ("CCc1ccc(C(C)C)cc1", "boiling point", 197),
    ("CN1CCCCC1", "boiling point", 107),
    ("CN(C(=O)Cl)c1ccccc1", "boiling point", 280),
    ("CCCCCCCCCCCCCCCCCCCCC", "boiling point", 356),
    ("CC(C)CCSCCC(C)C", "boiling point", 211),
    ("Cc1cc(C)c(C)cn1", "boiling point", 188),
    ("FC(F)(F)N1C(F)(F)C(F)(F)OC(F)(F)C1(F)F", "boiling point", 51),
    ("C(=C\\c1ccccc1)/c1ccccc1", "boiling point", 307),
    ("CCCCC(C)(C)CO", "boiling point", 172),
    ("C[SiH](O[SiH](C)O[Si](C)(C)C)O[Si](C)(C)C (centres undefined)", "boiling point", 170),
    ("Cc1ccc(C)cc1", "boiling point", 138),
    ("CCOC(=O)CCCCCCCCC(=O)OCC", "boiling point", 305),
    ("CC12CCC(CC1)C(C)(C)O2", "boiling point", 176),
    ("C1=CCCC=CCCC=CCC1", "boiling point", 240),
    ("COc1ccc(N=C=S)cc1", "boiling point", 280),
    ("Nc1ccc(/N=N/c2ccccc2)cc1", "boiling point", 366),
    ("CC(CBr)c1ccccc1 (centres undefined)", "boiling point", 188),
    ("CC1CCCc2ccccc21 (centres undefined)", "boiling point", 221),
    ("COc1cccc(C)c1C", "boiling point", 199),
    ("Clc1ccc(C(Cl)(Cl)Cl)cc1Cl", "boiling point", 283),
    ("O=C=Nc1cccc2c(N=C=O)cccc12", "boiling point", 330),
    ("CCC1C=CCC1 (centres undefined)", "boiling point", 97.8),
    ("COS(=O)(=O)Cl", "boiling point", 134),
    ("COc1cccc(OC)c1O", "boiling point", 261),
    ("FC(F)C(F)(F)F", "boiling point", -48.5),
    ("CC(C)Br", "boiling point", 59.5),
    ("Cc1cccc([N+](=O)[O-])c1C", "boiling point", 240),
    ("CCOC(=O)C(Br)(Br)Br", "boiling point", 225),
    ("C1=NNCC1", "boiling point", 144),
    ("FC=C(F)Br", "boiling point", 19),
    ("Cc1ccc(C)c2ncccc12", "boiling point", 266),
    ("Cc1cc(C)c(C)cc1C", "boiling point", 197),
    ("O=C1CCCCN1", "boiling point", 256),
    ("O=C(Br)c1ccccc1", "boiling point", 218),
    ("O=C(c1ccc(Br)cc1)c1ccc(Br)cc1", "boiling point", 395),
    ("CC(C)CC(C)N (centres undefined)", "boiling point", 109),
    ("CCOC(=O)C(Cl)(Cl)Cl", "boiling point", 168),
    ("CN(C)CCCN(C)C", "boiling point", 144),
    ("O=C(O)CCCCC(=O)O", "boiling point", 338),
    ("CC(=O)OCCCCOC(C)=O", "boiling point", 229),
    ("C#CC=CC=C", "boiling point", 83.5),
    ("COc1ccc2c(c1)CCCN2", "boiling point", 284),
    ("O=CN1CCCCC1", "boiling point", 222),
    ("C1=CC=CCC=C1", "boiling point", 117),
    ("FC(F)(F)C(F)(F)C(F)(F)C(F)(F)C(F)(F)C(F)(F)C(F)(F)Cl", "boiling point", 108),
    ("CCOc1ccc(N)cc1", "boiling point", 254),
    ("FC(F)(F)C(Cl)=C(Cl)Cl", "boiling point", 88.1),
    ("COc1cccc(OC)c1", "boiling point", 218),
    ("N#CCc1ccc2ccccc2c1", "boiling point", 303),
    ("CCCCSC#N", "boiling point", 186),
    ("CCCCC[Si](Cl)(Cl)Cl", "boiling point", 172),
    ("C=CCOC(=O)CC", "boiling point", 124),
]
